- test summary: Evaluation of light fastness-2 (OD value of printed portion after 400 hours xenon fadeometer)
- Assay type: physicochemical
- details: ink prepared as in Example 1 from the salt named in the row; OD value of printed portion after 400 hours xenon fadeometer
- Procedure: The prepared ink was filled in an ink cartridge for a piezo-type ink-jet printer EM-930C (manufactured by Seiko Epson). The printing was performed with this printer, and the light fastness was evaluated. Further, the storage stability of the ink was evaluated. (A)-2 Evaluation of Light Fastness-2 Printing density (OD value) was measured after irradiating a printed-portion with light for 400 hours using axenon fadeometer (manufactured by Suga Shikenki), and the light fastness was evaluated.
recorded metric: (A)-2 light fastness-2

Examples with their reported (A)-2 light fastness-2 follow.
N#Cc1c(C(F)(F)F)c(N=Nc2cc(C(=O)O)ccc2C(=O)O)c(O)n(CCNc2nc(NCCn3c(O)c(N=Nc4cc(C(=O)O)ccc4C(=O)O)c(C(F)(F)F)c(C#N)c3=O)nc(NCCn3c(O)c(N=Nc4cc(C(=O)O)ccc4C(=O)O)c(C(F)(F)F)c(C#N)c3=O)n2)c1=O ... ⊚
CCCCc1c(N=Nc2cc(C(=O)O)ccc2C(=O)O)c(O)n(CCNc2nc(NCCn3c(O)c(N=Nc4cc(C(=O)O)ccc4C(=O)O)c(CCCC)c(C#N)c3=O)nc(NCCn3c(O)c(N=Nc4cc(C(=O)O)ccc4C(=O)O)c(CCCC)c(C#N)c3=O)n2)c(=O)c1C#N ... ⊚
Cc1c(C(=O)O)ccc(C(=O)O)c1N=Nc1c(O)[nH]c(=O)c(C#N)c1C ... ◯
Cc1c(N=Nc2c(C(=O)O)cccc2C(=O)O)c(O)n(CCNc2nc(Cl)nc(NCCn3c(O)c(N=Nc4c(C(=O)O)cccc4C(=O)O)c(C)c(C#N)c3=O)n2)c(=O)c1C#N ... ◯
Cc1c(N=Nc2cc(C(=O)O)ccc2C(=O)O)c(O)n(CCNc2nc(NCCn3c(O)c(N=Nc4cc(C(=O)O)ccc4C(=O)O)c(C)c(C#N)c3=O)nc(SCCC(=O)O)n2)c(=O)c1C#N ... ◯

(A)-2 light fastness-2 measured on CCc1c(N=Nc2cc(C(=O)O)ccc2C(=O)O)c(O)n(CCn2c(=O)c3cc4c(=O)n(CCn5c(O)c(N=Nc6cc(C(=O)O)ccc6C(=O)O)c(CC)c(C#N)c5=O)c(=O)c4cc3c2=O)c(=O)c1C#N = ⊚⊚

(A)-2 light fastness-2 measured on Cc1c(N=Nc2cc(C(=O)O)ccc2C(=O)O)c(O)n(CCCNc2nc(NCCn3c(O)c(N=Nc4cc(C(=O)O)ccc4C(=O)O)c(C)c(C#N)c3=O)nc(NCCn3c(O)c(N=Nc4c(C(=O)O)cccc4C(=O)O)c(C)c(C#N)c3=O)n2)c(=O)c1C#N [Compound 274] = ◯

(A)-2 light fastness-2 measured on Cc1c(N=Nc2cc(Cl)cc(C(=O)O)c2C(=O)O)c(O)[nH]c(=O)c1C#N = ⊚

(A)-2 light fastness-2 measured on CCc1c(N=Nc2cc(C(=O)O)ccc2C(=O)O)c(O)n(CCCNC(=O)c2cc(C(=O)O)c(C(=O)NCCCn3c(O)c(N=Nc4cc(C(=O)O)ccc4C(=O)O)c(C)c(C#N)c3=O)cc2C(=O)O)c(=O)c1C#N = ⊚

(A)-2 light fastness-2 measured on N#Cc1c(-c2ccccc2)c(N=Nc2cc(C(=O)O)ccc2C(=O)O)c(O)n(CCNc2nc(Cl)nc(NCCn3c(O)c(N=Nc4cc(C(=O)O)ccc4C(=O)O)c(-c4ccccc4)c(C#N)c3=O)n2)c1=O = ◯

(A)-2 light fastness-2 measured on CCc1c(N=Nc2cc(C(=O)O)ccc2C(=O)O)c(O)n(CCNc2nc(NCCn3c(O)c(N=Nc4cc(C(=O)O)ccc4C(=O)O)c(CC)c(C#N)c3=O)nc(NCCn3c(O)c(N=Nc4cc(C(=O)O)ccc4C(=O)O)c(CC)c(C#N)c3=O)n2)c(=O)c1C#N = ⊚

Origin of measurements: patent US20040231558A1
